Values compiled from ChEMBL document CHEMBL1138827.

For each record, write down the corresponding Number.
tested on: Rattus norvegicus; assay: Effect on latency to enter dark chamber after administration of 1 mg/kg of the compound; assay type: functional
Answers are plain numbers, in %.

# Compound, Number (%)
records = [
    ("O=[N+]([O-])c1ccc(/C=N/c2nc(-c3ccccc3)cs2)cc1", 58),
]

Required: Number, one value per compound below.
1. C(=N\c1nc(-c2ccccc2)cs1)/c1ccccc1
2. O=[N+]([O-])c1ccc(/C=N/c2nccs2)cc1
3. Cc1csc(/N=C/c2ccc([N+](=O)[O-])cc2)n1
4. CC(=O)N1CCOC1c1cccc(Cl)c1 (centres undefined)
5. CN1[C@@H]2C[C@@H](OC(=O)[C@H](CO)c3ccccc3)C[C@H]1[C@@H]1O[C@@H]12

1: 0; 2: 42; 3: 42; 4: 0; 5: 17
